Target: protein kinase C
Assay: in vitro protein kinase C inhibition: protein kinase-induced incorporation of 32P from [γ-32P]ATP into histone
Conditions: concentration of test compound which reduces by 50% the protein kinase-induced incorporation of 32P from [γ-32P]ATP into histone
pIC50: −log10 of the molar value. Where a name gives a salt, the structure may show the parent alone.
MEASURED_PARAMETER: pIC50

CN1C[C@@H]2Cc3c(C4=C(c5cn(C)c6ccccc56)C(=O)NC4=O)c4ccccc4n3C[C@@H]2C1 (relative stereo) [Example 6, hydrochloride] ... 7.52

(I) Cn1cc(C2=C(c3c4n(c5ccccc35)CCC3(CCNC3)C4)C(=O)NC2=O)c2ccccc21 (stereo not drawn) [Example 1]
(II) CN1C[C@H]2Cc3c(C4=C(c5cn(C)c6ccccc56)C(=O)NC4=O)c4ccccc4n3C[C@@H]2C1 (relative stereo) [Example 14, hydrochloride]
# min-compare on pIC50 between I and II Refer to your chosen entry by its label in the reply. I
